assay: self-splicing fitness, log relative to wild type (ln ratio); higher = more splicing; Tetrahymena group I intron in knt gene, E. coli kanamycin selection, DiMSum; sequences stand for … in CUCUCU…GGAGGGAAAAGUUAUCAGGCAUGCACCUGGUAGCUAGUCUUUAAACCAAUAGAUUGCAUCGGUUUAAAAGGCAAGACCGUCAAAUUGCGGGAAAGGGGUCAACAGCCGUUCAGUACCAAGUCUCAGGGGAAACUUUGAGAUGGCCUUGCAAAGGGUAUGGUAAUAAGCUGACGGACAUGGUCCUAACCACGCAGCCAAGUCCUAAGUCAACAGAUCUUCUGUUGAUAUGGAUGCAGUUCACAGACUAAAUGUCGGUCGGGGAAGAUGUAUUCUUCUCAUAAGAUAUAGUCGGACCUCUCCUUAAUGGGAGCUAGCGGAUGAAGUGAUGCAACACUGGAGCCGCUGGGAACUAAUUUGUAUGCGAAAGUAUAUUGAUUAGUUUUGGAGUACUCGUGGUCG; conditions: 37 °C;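 also: selection with 25 µg/mL kanamycin versus none on LB agar overnight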
Entries and their self-splicing fitness (ln) values follow.

Some solved entries appear below for comparison.
In [3]: df
Out[3]:
           sequencetext  result
0  GACUAGCAAUAUUACGGGGC   -1.21
1  CGGGAGCAAUAUUACGGUUA   -2.69
2  UUGAAGCAAUAUUACGACAC  -0.278
3  CUGCAGCAAUAUUACGUCGG   -1.98

Here's the next entry for you.
Entry under test: CGCUAGCAAUAUUACGUCGG . Its self-splicing fitness (ln) was -0.631

Origin of values: the supplement of paper PMC7877785
